Reported IC50 values are given for each entry in this list.
- assay system: p101/p110γ protein (PI3Kγ) (Homo sapiens, UniProt P48736)
- Construct: HA; made in house; host or cells: Spodoptera frugiperda (Sf9) cells, baculovirus coinfection
- Sequence (P48736 whole entry, species assumed): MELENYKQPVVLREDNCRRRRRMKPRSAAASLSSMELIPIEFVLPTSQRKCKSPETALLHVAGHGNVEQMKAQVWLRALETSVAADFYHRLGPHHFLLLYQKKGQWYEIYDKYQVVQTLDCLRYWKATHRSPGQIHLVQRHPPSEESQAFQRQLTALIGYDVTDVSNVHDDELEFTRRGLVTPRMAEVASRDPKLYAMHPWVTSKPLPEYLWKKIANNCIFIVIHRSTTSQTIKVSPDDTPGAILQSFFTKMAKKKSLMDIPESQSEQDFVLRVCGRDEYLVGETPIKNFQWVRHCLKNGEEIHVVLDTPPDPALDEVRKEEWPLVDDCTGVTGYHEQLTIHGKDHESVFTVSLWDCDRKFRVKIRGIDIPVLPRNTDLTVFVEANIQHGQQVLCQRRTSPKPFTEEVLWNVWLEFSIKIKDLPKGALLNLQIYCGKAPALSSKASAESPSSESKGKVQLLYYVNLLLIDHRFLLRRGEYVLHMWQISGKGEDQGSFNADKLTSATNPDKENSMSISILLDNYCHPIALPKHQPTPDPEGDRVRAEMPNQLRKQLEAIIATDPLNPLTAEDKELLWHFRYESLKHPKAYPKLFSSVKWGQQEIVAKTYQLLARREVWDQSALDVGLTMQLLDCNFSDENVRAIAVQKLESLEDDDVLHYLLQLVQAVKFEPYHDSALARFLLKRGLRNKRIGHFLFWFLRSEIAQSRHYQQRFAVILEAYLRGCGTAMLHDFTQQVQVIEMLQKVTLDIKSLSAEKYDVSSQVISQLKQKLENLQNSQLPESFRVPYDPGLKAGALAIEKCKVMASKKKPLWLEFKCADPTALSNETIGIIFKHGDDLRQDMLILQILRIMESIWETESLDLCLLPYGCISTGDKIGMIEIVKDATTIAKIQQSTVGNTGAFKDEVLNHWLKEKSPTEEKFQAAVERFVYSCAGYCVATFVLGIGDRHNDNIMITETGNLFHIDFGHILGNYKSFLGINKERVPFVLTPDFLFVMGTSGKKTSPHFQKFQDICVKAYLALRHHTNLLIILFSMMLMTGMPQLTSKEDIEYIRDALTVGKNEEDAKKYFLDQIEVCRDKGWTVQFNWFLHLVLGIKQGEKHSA
- Sequence (Q8WYR1 whole entry partner, species assumed): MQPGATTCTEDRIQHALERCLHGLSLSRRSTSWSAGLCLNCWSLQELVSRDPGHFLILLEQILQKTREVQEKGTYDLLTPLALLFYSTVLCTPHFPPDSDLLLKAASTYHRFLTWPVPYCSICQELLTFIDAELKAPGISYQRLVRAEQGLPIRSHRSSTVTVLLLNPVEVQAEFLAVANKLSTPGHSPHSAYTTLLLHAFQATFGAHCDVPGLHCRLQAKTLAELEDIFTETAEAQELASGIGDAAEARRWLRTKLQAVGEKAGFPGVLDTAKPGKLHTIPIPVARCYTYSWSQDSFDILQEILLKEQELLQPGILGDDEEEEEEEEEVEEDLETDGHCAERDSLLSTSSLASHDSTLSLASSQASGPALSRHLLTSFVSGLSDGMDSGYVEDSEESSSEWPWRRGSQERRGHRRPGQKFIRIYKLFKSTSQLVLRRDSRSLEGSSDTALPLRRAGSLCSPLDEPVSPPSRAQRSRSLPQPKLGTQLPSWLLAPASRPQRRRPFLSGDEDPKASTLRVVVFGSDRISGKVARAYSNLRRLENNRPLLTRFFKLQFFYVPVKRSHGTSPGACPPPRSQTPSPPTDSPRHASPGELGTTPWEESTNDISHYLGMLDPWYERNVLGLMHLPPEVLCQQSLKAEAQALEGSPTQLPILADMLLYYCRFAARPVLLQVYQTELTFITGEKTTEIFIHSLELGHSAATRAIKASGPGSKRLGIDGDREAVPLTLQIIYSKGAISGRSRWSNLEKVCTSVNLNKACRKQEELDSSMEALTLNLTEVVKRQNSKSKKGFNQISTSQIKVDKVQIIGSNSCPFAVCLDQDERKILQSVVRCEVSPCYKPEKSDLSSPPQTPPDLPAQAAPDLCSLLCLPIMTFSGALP
- test protocol: PI3Kγ In Vitro Kinase Assay
- Type: biochemical
- condition notes: purified recombinant p101/p110γ with G protein β1/γ2 subunits; 20 μM ATP, 25 μM PIP2; 20 minutes at room temperature; radioactive PIP3 readout

| compound | quantity unit | IC50 |
| --- | --- | --- |
| O=C1NC(=S)SC1=Cc1ccc2c(c1)N(C(=O)c1ccc3ccccc3c1)CCO2 | µM | 0.57 |
| O=C1NC(=S)SC1=Cc1ccc2c(c1)N(C(=O)c1cccnc1)CCO2 | µM | 0.41 |
| N#Cc1ccc(C(=O)N2CCOc3ccc(C=C4SC(=S)NC4=O)cc32)cc1 | µM | 0.385 |
| CS(=O)(=O)c1ccc(C(=O)N2CCOc3ccc(C=C4SC(=S)NC4=O)cc32)cc1 | µM | 0.174 |
| O=C1NC(=S)SC1=Cc1ccc2c(c1)N(C(=O)Nc1ccccc1OC(F)(F)F)CCO2 | µM | 0.225 |
| O=C1NC(=S)SC1=Cc1ccc2c(c1)N(C(=O)Nc1cccc(Cl)c1)CCO2 | µM | 0.002 |
| O=C1NC(=S)SC1=Cc1ccc2c(c1)N(C(=O)c1cccs1)CCO2 | µM | 0.15 |
| O=C1NC(=S)SC1=Cc1ccc2c(c1)N(C(=O)Nc1ccc(Cl)c(Cl)c1)CCO2 | µM | 0.005 |
| O=C1NC(=S)SC1=Cc1ccc2c(c1)N(CCc1ccccc1)CCCO2 | µM | 0.08 |
| O=C1NC(=S)SC1=Cc1ccc2c(c1)N(C(=O)Nc1ccc(Oc3ccccc3)cc1)CCCO2 | µM | 1.87 |
| O=C1NC(=S)SC1=Cc1ccc2c(c1)N(C(=O)c1ccncc1)CCO2 | µM | 0.41 |
| CC1CCCC(C(=O)N2CCOc3ccc(C=C4SC(=S)NC4=O)cc32)C1 (centres unmarked) | µM | 0.012 |
| O=C1NC(=S)SC1=Cc1ccc2c(c1)N(C(=O)c1ccc3c(c1)OCO3)CCO2 | µM | 0.935 |
| CC(=O)N1CCC(C(=O)N2CCOc3ccc(C=C4SC(=S)NC4=O)cc32)CC1 | µM | 0.037 |
| COC(=O)CCCCCCC(=O)N1CCOc2ccc(C=C3SC(=S)NC3=O)cc21 | µM | 0.018 |
| O=C1NC(=S)SC1=Cc1ccc2c(c1)N(C(=O)Nc1ccc(Cl)cc1)CCO2 | µM | 0.002 |
| Cc1cc(C)cc(NC(=O)N2CCOc3ccc(C=C4SC(=S)NC4=O)cc32)c1 | µM | 0.009 |
